pIC50: −log10 of the molar value.
Compiled record: pIC50 values for Non-receptor tyrosine-protein kinase TYK2 (Homo sapiens) across several sources.

CCC(Cn1ccc2cnc(Nc3cnn(CC(=O)O)c3)nc21)C(C)C (stereo not shown)
> 7.00
O=C(NC[C@@H]1CC[C@@H]1O)c1noc2c1CN(c1ncnc3[nH]ccc13)CC2 (relative stereo)
< 5.70
O=C(CN1CCNCC1)Nc1cccc(-c2cnc3ccccc3n2)c1
< 4.70
CCC(CC)n1cc(-c2nc(-c3cnn(CC(O)C(C)(C)C)c3)cn3nccc23)cn1 (stereo not shown)
6.00 to 7.00
Cc1cc(Nc2ncc(C)c(N3C4CC3CN(CCC#N)C4)n2)sn1
> 6.00
O=C(NCCC1COC1)c1noc2c1CN(c1ncnc3[nH]ccc13)CC2
< 5.70

# get_value(readout= pIC50, system= Non-receptor tyrosine-protein kinase TYK2 (Homo sapiens)) for CCOC(=O)CCn1cc(Nc2ncc3ccn(C[C@@H](CC)C(C)C)c3n2)cn1
> 7.00

---

Compiled record: IC50 values for Non-receptor tyrosine-protein kinase TYK2 (Homo sapiens, UniProt P29597) across several sources.

Consider the worked cases shown below.
Cc1ccc(S(=O)(=O)N(C)c2ccccc2CNc2nc(-c3cc(F)c(O)cc3CC(F)(F)F)cc3[nH]nc(C(N)=O)c23)cn1
79.4 nM
CCC(Cn1ccc2cnc(Nc3cnn(CC(=O)OC(C)C)c3)nc21)CC(F)(F)F (stereo not shown)
< 100 nM
C#CCNc1nc(Nc2ccc3c(c2)NC[C@H](O)CO3)ncc1C(N)=O
< 10 nM

Moving on to the next compound.
Look up IC50: CNc1nc(Nc2ccc3c(c2)NC[C@H](O)CO3)ncc1C(N)=O
< 10 nM

---

Compiled record: IC50 values for Non-receptor tyrosine-protein kinase TYK2 (Homo sapiens, UniProt P29597) across several sources.

Consider the worked cases shown below.
NC(=O)c1cnc(Nc2ccc3c(c2)NCC(O)CO3)nc1NCc1ccc(F)cc1 (centres unmarked)
10 to 100 nM
Clc1cnc2nc1NCCCc1cccc(c1)OCCc1cccc(c1)N2
106 nM
N#CCN1CC2(CCC(c3cccc4nc(NC(=O)[C@H]5CC5(F)F)nn34)CC2)C1
1330 nM
O=C1NCCCCOCc2cc(cc(N3CCOCC3)c2)Nc2nccc(n2)-c2ccc1cc2[N+](=O)[O-]
> 10000 nM
CC1(Nc2nc(Nc3ccc4c(c3)NC[C@H](O)CO4)ncc2C(N)=O)CC1
< 10 nM

Look up IC50: Cc1cc(Nc2ncc(C)c(N3CC(CC#N)(N4CCCCCC4)C3)n2)sn1
< 10 nM

Look up IC50: O=C1NCCCCOCc2cc(ccc2OCC2CCC2)Nc2nccc(n2)-c2ccc1cc2[N+](=O)[O-]
> 10000 nM

Look up IC50: CCCS(=O)(=O)N[C@H]1C[C@@H](n2cnc3cnc4[nH]ccc4c32)C1
2850 nM

Look up IC50: N#CCN1CC2(CCC(c3cccc4nc(NC(=O)C5CC5)nn34)CC2)C1
581 nM

Look up IC50: O=C(NCC1CC1(F)F)c1noc2c1CN(c1ncnc3[nH]ccc13)CC2 (centres unmarked)
> 2000 nM

Look up IC50: CC(C)OCCO[C@H]1CNc2cc(Nc3ncc(C(N)=O)c(NC4CC4)n3)ccc2OC1
< 10 nM

Look up IC50: Cc1cc(Nc2ncc(C)c(N3CC(CC#N)(N4CC(N(C)C)C4)C3)n2)sn1
< 100 nM

---

Compiled record: IC50 values for Non-receptor tyrosine-protein kinase TYK2 (Homo sapiens, UniProt P29597) across several sources.

CCCN(c1ccccc1CNc1nc(-c2cc(F)c(O)cc2CC)cc2[nH]ncc12)S(C)(=O)=O
45.4 nM
Cc1cc(Nc2ncc(C3CC3)c(N3CC(CC#N)(N4CCCCC4)C3)n2)sn1
< 10 nM
CC(C)Nc1nc(Nc2ccc3c(c2)NC[C@H](O)CO3)ncc1C(N)=O
< 10 nM
OC[C@H](O)Cn1cc(-c2cn3nccc3c(-c3cnn(C(C4CC4)C4CC4)c3)n2)cn1
100 to 1000 nM
CC1CCOCc2cc(ccc2OC2CC2)Nc2nccc(n2)-c2ccc(cc2N)C(=O)NC1 (centres unmarked)
101 to 1000 nM
O=C(CN1CCCC1)Nc1cccc(-c2cnc3ccccc3n2)c1
> 20000 nM
Nc1cc2ccc1-c1ccnc(n1)Nc1ccc(OC3CCCOC3)c(c1)COCCCCNC2=O (centres unmarked)
1000 to 10000 nM
N#Cc1cccc(F)c1-c1cc(Nc2ccc(C(=O)N3CCCC3)cc2)c2c(n1)CNC2=O
17.7 nM
CNC(=O)c1n[nH]c2cc(-c3cc(F)c(O)cc3C3CC3)nc(NCc3ccccc3N(C)S(C)(=O)=O)c12
169 nM
Cn1nc(C(=O)NCCC(F)(F)F)c2c1CCN(c1ncnc3[nH]ccc13)C2
500 to 2000 nM

Look up IC50: Cc1cnc(Nc2ccc(N3CCOCC3)c(F)c2)nc1N1CC(CC#N)(N2CCCCC2)C1
< 10 nM

Look up IC50: CN1CCC(CC#N)(n2cc(-c3nc(-c4cnn(C)c4)cc4nccn34)cn2)CC1
10 to 100 nM

Look up IC50: COc1ccccc1-n1c(=O)[nH]c2c(C(N)=O)nc(-c3cccc(O)c3F)nc21
100 to 5000 nM

Look up IC50: Cn1cc(-c2cn3nccc3c(-c3cnn(C4CCCC4O)c3)n2)cn1 (centres unmarked)
100 to 1000 nM

Look up IC50: CCS(=O)(=O)N1CC(N(C)c2ncnc3[nH]ccc23)C2(CC2)C1 (racemic)
198 nM

Look up IC50: CCNC(=O)N1CC(CCF)(n2cc(-c3nc(-c4cnn(C)c4)cc4nccn34)cn2)C1
> 1000 nM

Look up IC50: CCc1cc(O)c(F)cc1-c1cc2[nH]nc(C(=O)NC)c2c(NCc2ccccc2N(C)S(=O)(=O)CC)n1
6.8 nM

---

Compiled record: IC50 values for UniProtKB P29597 across several sources.

CC[C@H](C1CC1)n1cc(-c2nc(-c3cnn(C[C@H](C)O)c3)cn3nccc23)cn1
10 to 100 nM

Look up IC50: Cn1cc(Nc2ncc(Cl)c(NC3CC4CN(S(C)(=O)=O)CC4C3)n2)cn1 (centres unmarked)
18 nM

Look up IC50: CC(=O)CC(C1CC1)n1cc(-c2nc(-c3cnn(C)c3)cc3nccn23)cn1 (centres unmarked)
100 to 1000 nM

Look up IC50: Cc1ccc(N(C)S(C)(=O)=O)c(CNc2nc(-c3cc(F)c(O)cc3CC(F)(F)F)cc3[nH]nc(C(N)=O)c23)c1
298 nM

Look up IC50: Cc1cnc(Nc2cc(CN(C)C)ns2)nc1N1CC(CC#N)(N2CCN3CCCC[C@H]3C2)C1
< 10 nM

Look up IC50: CCC(CC)n1cc(-c2nc(-c3cnn(C[C@H](O)CNC)c3)cn3nccc23)cn1
10 to 100 nM

Look up IC50: CN(c1ccccc1CNc1nc(-c2cc(F)c(O)cc2CC(F)(F)F)cc2[nH]ncc12)S(C)(=O)=O
146 nM

Look up IC50: Cn1ccc(-c2cc3nccn3c(-c3ccn(C4(CC#N)CN(CC(F)(F)F)C4)n3)n2)cc1=O
10 to 100 nM

Look up IC50: CCc1ccc(Cl)cc1-c1[nH]c(-c2cc(N)ncn2)cc1C(=O)NC
88 nM

Look up IC50: CCC(CC)n1cc(-c2nc(-c3cnn(CCCN(C)C)c3)cn3nccc23)cn1
100 to 1000 nM

Look up IC50: Cc1cnc(Nc2cccc(CN(C)C)c2)nc1N1CC(C)(NC(=O)c2cccc(F)c2)C1
< 50 nM

Look up IC50: Cc1cc(N(c2ncc(C)c(N3CC(CC#N)(NS(C)(=O)=O)C3)n2)S(C)(=O)=O)sn1
< 1000 nM

Look up IC50: NC(=O)c1cnc(Nc2ccc3c(c2)NCC(O)CO3)nc1NC1CCOCC1 (centres unmarked)
< 10 nM

Look up IC50: CC[C@H](Cn1ccc2cnc(Nc3cnn(CC(=O)O)c3)nc21)C(C)C
< 100 nM

Look up IC50: Cc1cc(Nc2ncc(C)c(N3CC(CC#N)(N4CCC5(CC4)CC5)C3)n2)sn1
< 10 nM

Look up IC50: O=C1NCCCCOCc2cccc(c2)Nc2nccc(n2)-c2ccc1cc2[N+](=O)[O-]
> 10000 nM

Look up IC50: Cc1ccc(Cl)cc1-n1cc(-c2ncnc3[nH]ccc23)cc1C(N)=O
2 nM

---

Compiled record: IC50 values for UniProt:P29597 across several sources.

Consider the worked cases shown below.
O=C(Nc1nc2cccc([C@H]3CCC4(C3)CN(C(=O)[C@@H]3CC3(F)F)C4)n2n1)C1CC1
830 nM
CCS(=O)(=O)n1nc(C(=O)NCCC(F)(F)F)c2c1CCN(c1ncnc3[nH]ccc13)C2
> 2000 nM
Cc1cc(Nc2ncc(C)c(N3CC(N)(CC#N)C3)n2)sn1
< 100 nM
Cc1cc(Nc2ncc(C)c(N3CC(CC#N)(N4CC(C)CC(C)C4)C3)n2)sn1 (centres unmarked)
< 5 nM
Cc1cc(Nc2ncc(C)c(N3CC(C)(CNC(=O)C4CN(C(=O)OC(C)(C)C)CC4(F)F)C3)n2)sn1 (centres unmarked)
< 100 nM

# get_value(readout= IC50, system= UniProt:P29597) for CCC(CC)Cn1ccc2cnc(Nc3cnn(CC(=O)OCCC#N)c3)nc21
< 100 nM

# get_value(readout= IC50, system= UniProt:P29597) for CCC(CC)n1cc(-c2nc(-c3cnn(CCN4CC(F)C4)c3)cn3nccc23)cn1
10 to 100 nM

# get_value(readout= IC50, system= UniProt:P29597) for CCOC(=O)C(C)(C)n1cc(Nc2ncc3ccn(CC(CC)CC)c3n2)cn1
< 100 nM
